B1: LINE1-mini (parent)
chain: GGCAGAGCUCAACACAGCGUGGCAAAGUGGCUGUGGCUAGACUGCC

- Variants of: B1
- test-summary: self-cleavage, relative activity (ratio to wild type); higher = more cleavage; in vitro, sequencing; the parent is a self-cleaving ribozyme
Attribute: self-cleavage
quantity-kind: self-cleavage

| mutation-annotation | obs-value |
| --- | --- |
| G33C G44U | 0.04 |
| G1C C42G | 0.01 |
| C10G G44C | 0.06 |
| A4G C18U | 0.55 |
| G1A C31G | 0.11 |
| A6C U20A | 0.52 |
| G27U U34C | 0.19 |
| A26U G35U | 0.16 |
| C10U U43A | 0.04 |
| C13G G36C | 0.08 |
| C10G U32C | 0.03 |
| A14G A41C | 0.05 |
| A6G U34C | 0.09 |
| A25G U28G | 0.57 |
| C3A G27C | 0.24 |
| U9G A24C | 0.07 |
| C18A C37A | 0.05 |
| A25C A41G | 0.28 |
| A12U A25U | 0.25 |
| U20G G27C | 0.38 |
| G22C U34G | 0.17 |
| C8G G19A | 0.15 |
| A4U G35C | 0.11 |
| G5U U20G | 0.06 |
| C23G A24G | 0.88 |
| C10G G44U | 0.04 |
| A6G G19C | 0.05 |
| C15U G35U | 0.13 |
| A25C G40C | 0.06 |
| A26U A39C | 0.25 |
| G27U A39G | 0.22 |
| G5C A24U | 0.07 |
| U32C U34A | 0.05 |
| C3U C37A | 0.12 |
| C10G G17U | 0.07 |
| C3A A16G | 0.22 |
| A26G C37U | 0.04 |
| C13U U28A | 0.49 |
| C3A C8A | 0.85 |
| G36U U43A | 0.04 |
| C3U A12U | 0.35 |
| A16C G35A | 0.06 |
| C13U G21U | 0.18 |
| G7C C13G | 0.18 |
| U38A C46U | 0.3 |
| U9G G33C | 0.05 |
